Would you kindly list enzyme activity, Grans for each of these molecules?
System: granulocytes
Experiment: peptidase activity in leukemia and non-leukemia patients, granulocytes (Table 6C)
Format: cell-based, human
Set-up: unit not given here
Details: N199 normal
Keep the answer to the number alone.

Lab book: enzyme activity, Grans of NC(=O)CC[C@H](N)C(=O)N[C@@H](CO)C(=O)Nc1ccc2c(c1)Oc1cc(NC(=O)[C@H](CO)NC(=O)[C@@H](N)CCC(N)=O)ccc1C21OC(=O)c2ccccc21 [QS, (H-L-Gln--Ser)2 Rho 110 .2TFA] noted as 0.05

Lab book: enzyme activity, Grans of `C[C@H](N)C(=O)Nc1ccc2c(c1)Oc1cc(NC(=O)[C@H](C)N)ccc1C21OC(=O)c2ccccc21` noted as 157.30

Lab book: enzyme activity, Grans of C[C@@H](O)[C@H](N)C(=O)N1CCC[C@H]1C(=O)Nc1ccc2c(c1)Oc1cc(NC(=O)[C@@H]3CCCN3C(=O)[C@@H](N)[C@@H](C)O)ccc1C21OC(=O)c2ccccc21 [TP, (H-L-Thr--Pro)2 Rho 110 .2TFA] noted as 3.71
